I'd appreciate it if you could supply pIC50 values for the items below.
ASSAY_SYSTEM: β-galactosidase (β-Gal) (Escherichia coli)
Construct: purchased Sigma (St. Louis, MO)
Sequence (P00722 2-1024): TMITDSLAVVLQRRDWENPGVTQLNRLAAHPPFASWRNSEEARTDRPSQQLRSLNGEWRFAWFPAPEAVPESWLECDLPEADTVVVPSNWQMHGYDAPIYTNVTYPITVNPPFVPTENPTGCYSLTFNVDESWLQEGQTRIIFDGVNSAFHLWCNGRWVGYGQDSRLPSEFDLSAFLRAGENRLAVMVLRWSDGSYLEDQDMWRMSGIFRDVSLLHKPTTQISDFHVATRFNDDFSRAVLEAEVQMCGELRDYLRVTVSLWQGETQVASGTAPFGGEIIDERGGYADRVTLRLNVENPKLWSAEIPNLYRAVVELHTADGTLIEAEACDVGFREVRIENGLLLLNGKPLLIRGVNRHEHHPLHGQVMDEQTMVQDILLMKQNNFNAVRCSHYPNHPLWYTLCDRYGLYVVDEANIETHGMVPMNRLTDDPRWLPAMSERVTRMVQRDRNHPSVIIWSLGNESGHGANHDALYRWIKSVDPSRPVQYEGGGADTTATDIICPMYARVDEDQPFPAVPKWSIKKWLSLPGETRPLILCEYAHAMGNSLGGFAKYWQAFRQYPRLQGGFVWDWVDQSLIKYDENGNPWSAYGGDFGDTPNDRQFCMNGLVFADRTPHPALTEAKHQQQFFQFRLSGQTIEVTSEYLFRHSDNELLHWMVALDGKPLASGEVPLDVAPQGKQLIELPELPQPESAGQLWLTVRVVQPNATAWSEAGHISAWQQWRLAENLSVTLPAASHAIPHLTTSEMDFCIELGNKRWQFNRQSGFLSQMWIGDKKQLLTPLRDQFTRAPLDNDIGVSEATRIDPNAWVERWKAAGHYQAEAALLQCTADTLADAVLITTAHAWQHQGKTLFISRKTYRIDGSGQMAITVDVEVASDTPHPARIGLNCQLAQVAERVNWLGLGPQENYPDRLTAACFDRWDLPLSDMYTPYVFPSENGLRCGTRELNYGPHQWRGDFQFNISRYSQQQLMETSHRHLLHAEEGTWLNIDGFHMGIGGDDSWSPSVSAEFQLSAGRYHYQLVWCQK
EXPERIMENT_SUMMARY: biochemical
Assay type: biochemical
pIC50: −log10 of the molar value. Ends that are not written are not given here.

Input: Could you tell me which pIC50 is on file for FKRYKRWGSC [nPEP-1] ?
Output: ~5.40

Input: Quick one: PASMFSYFKKQGYYYKLGSC [PEP-2]
Output: ~4.89

Input: Quick one: RVFKRYKRWLHVSRYYFGSC [PEP-1]
Output: ~5.80

Input: Quick one: FKRYRRWGSC [nPEP-1-45]
Output: ~5.60

These measurements were taken from paper PMC5557489.
